FYI, the data here is from patent US20240279318A1.

# assay-system: T1, AFP158/HLA-A*02:01 complex (human)
# T1 construct: flowed as analyte in SPR
# experiment: SPR, fold vs AS170036 VL1VH1
Item-by-item account of Affinity increase
Kindly report the value followed by its unit.

# example entries with known answers
>>> result("AS170036 VL1VH1-VHG108N (scFv) scFv: QSALTQPRSVSGSPGQSVTISCAGTSSDVGSENYVSWYQQHPGKAPKLMIYQVNKRASGVPDRFSGSKSGNTASLTISGLQAEDEADYYCASYRSSDHNIVFGGGTKLTVLGGGGSGGGGSGGGGSEVQLVESGGGLVQPGGSLRLSCAASGFTFSSYAMSWVRQAPGKGLEWVSTINSGTGSPYYADSVKGRFTISRDNSKNTLYLQMNSLRAEDTAVYYCAKNFFDGSWFLNPPAMDYWGQGTLVTVSSHHHHHH")
"2 fold"
>>> result("AS170036 VL1VH1-VHG108E (scFv) scFv: QSALTQPRSVSGSPGQSVTISCAGTSSDVGSENYVSWYQQHPGKAPKLMIYQVNKRASGVPDRFSGSKSGNTASLTISGLQAEDEADYYCASYRSSDHNIVFGGGTKLTVLGGGGSGGGGSGGGGSEVQLVESGGGLVQPGGSLRLSCAASGFTFSSYAMSWVRQAPGKGLEWVSTINSGTGSPYYADSVKGRFTISRDNSKNTLYLQMNSLRAEDTAVYYCAKNFFDGSWFLEPPAMDYWGQGTLVTVSSHHHHHH")
"4.1 fold"

Ask: Which measured Affinity increase value corresponds to AS170036 VL1VH1-VHG108D (scFv) scFv: QSALTQPRSVSGSPGQSVTISCAGTSSDVGSENYVSWYQQHPGKAPKLMIYQVNKRASGVPDRFSGSKSGNTASLTISGLQAEDEADYYCASYRSSDHNIVFGGGTKLTVLGGGGSGGGGSGGGGSEVQLVESGGGLVQPGGSLRLSCAASGFTFSSYAMSWVRQAPGKGLEWVSTINSGTGSPYYADSVKGRFTISRDNSKNTLYLQMNSLRAEDTAVYYCAKNFFDGSWFLDPPAMDYWGQGTLVTVSSHHHHHH ?
Reply: 5.5 fold
